Catalogue of molecules with associated log10 of ED50
- Tested on: tetrabenazine-induced depression in mice
- experiment summary: Antidepressant activity (inhibition of tetrabenazine induced ptosis / tetrabenazine-induced depression)
- Format: in vivo
- condition parameters: Mus musculus; po; Table 1 part 1; read-out: ED50 (antidepressant activity, inhibition of tetrabenazine induced ptosis)
// stored as log10 of ED50 expressed in mg/kg

Previously resolved entries follow.
{"molecule": "CN(C)C[C@@H]1CCCC[C@@]12Cc1cc(Cl)ccc1O2 (relative stereo) [5-chloro Me cis 1]", "reported metric": "log10 of ED50", "reported value": 0.18}
{"molecule": "CN(C)C[C@@H]1CCCC[C@]12Cc1cc(Cl)ccc1O2 (relative stereo) [5-chloro Me trans 1]", "reported metric": "log10 of ED50", "reported value": 0.14}
{"molecule": "CN(C)C[C@@H]1CCCC[C@]12Cc1ccccc1O2 (relative stereo) [H Me trans 1]", "reported metric": "log10 of ED50", "reported value": 0.48}
{"molecule": "CN(C)C[C@@H]1CCCC[C@]12Cc1c(Cl)cccc1O2 (relative stereo) [4-chloro Me trans 1]", "reported metric": "log10 of ED50", "reported value": 0.76}
{"molecule": "CN(C)C[C@@H]1CCCC[C@@]12Cc1cc(Cl)c(Cl)cc1O2 (relative stereo) [5,6-dichloro Me cis 1]", "reported metric": "log10 of ED50", "reported value": 0.54}

Would you mind telling me what log10 of ED50 value was observed for CN(C)C[C@@H]1CCCC[C@@]12Cc1cc(Br)ccc1O2 (relative stereo) [5-bromo Me cis 1] ? 0.67

Likewise for CCN(CC)C[C@@H]1CCCC[C@@]12Cc1cc(Cl)ccc1O2 (relative stereo) [5-chloro Et cis 1] ? 0.67

Then this molecule: CN(C)C[C@@H]1CCCC[C@]12Cc1ccc(Cl)cc1O2 (relative stereo) [6-chloro Me trans 1] -0.38
